Readings of IL-2 secretion, pg/ml, at 3.3 ug/ml, N = 2 for the listed binders
# Test target: T1, CTLA-4 on human T lymphocytes (PBMC, CD3+ T cells) (human, UniProt P16410 36-223)
# T1 sequence (looked up): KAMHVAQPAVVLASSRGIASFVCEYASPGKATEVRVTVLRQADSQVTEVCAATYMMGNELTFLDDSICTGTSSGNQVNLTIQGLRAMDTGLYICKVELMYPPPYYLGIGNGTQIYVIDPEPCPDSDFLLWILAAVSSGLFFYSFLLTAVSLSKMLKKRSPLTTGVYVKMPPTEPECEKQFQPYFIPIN
# Protocol: cell-based or functional assay
Express the result in pg/mL but write the number alone.

# count of solved cases: 3
* 31C12F3 fully human CTLA-4 antibody (human IgG1, kappa) (antibody, V domains shown, also called mAb010) VH: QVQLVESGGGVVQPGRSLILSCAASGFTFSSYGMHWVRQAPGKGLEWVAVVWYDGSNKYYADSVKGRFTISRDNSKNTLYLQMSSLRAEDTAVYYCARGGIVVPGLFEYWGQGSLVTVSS VL: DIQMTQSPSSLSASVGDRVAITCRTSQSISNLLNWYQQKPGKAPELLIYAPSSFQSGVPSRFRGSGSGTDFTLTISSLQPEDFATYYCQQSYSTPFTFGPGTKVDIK | 3330
* 97A8D1 fully human CTLA-4 antibody (human IgG1, kappa) (antibody, V domains shown, also called mAb49; mAb049) VH: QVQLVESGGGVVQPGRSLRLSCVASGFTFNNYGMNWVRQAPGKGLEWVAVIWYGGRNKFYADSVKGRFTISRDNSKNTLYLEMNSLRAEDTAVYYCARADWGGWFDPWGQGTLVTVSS VL: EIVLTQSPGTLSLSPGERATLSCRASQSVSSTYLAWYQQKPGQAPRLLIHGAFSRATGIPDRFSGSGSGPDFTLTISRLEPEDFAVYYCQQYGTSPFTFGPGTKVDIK | 3330
* 40C4C6 fully human CTLA-4 antibody (human IgG1, kappa) (antibody, V domains shown, also called mAb09; mAb009) VH: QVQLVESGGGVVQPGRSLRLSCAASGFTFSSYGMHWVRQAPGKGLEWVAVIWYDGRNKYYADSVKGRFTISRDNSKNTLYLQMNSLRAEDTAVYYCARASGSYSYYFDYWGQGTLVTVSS VL: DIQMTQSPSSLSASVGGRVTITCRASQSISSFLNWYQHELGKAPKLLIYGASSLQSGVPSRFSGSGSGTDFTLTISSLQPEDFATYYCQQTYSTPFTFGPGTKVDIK | 3620

Lab note: next binder to report on.
Look at this binder and give its reported IL-2 secretion, pg/ml, at 3.3 ug/ml, N = 2. 92C8B6 fully human CTLA-4 antibody (human IgG1, kappa) (antibody, V domains shown, also called mAb42; mAb042) VH: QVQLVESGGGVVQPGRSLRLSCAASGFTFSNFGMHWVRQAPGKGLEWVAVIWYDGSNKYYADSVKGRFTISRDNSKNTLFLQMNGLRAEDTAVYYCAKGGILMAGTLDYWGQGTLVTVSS VL: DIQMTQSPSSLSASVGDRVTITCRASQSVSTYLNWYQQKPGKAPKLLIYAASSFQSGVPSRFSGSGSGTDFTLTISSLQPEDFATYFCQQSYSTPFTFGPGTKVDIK 3490

Every entry's value here was drawn from patent US20210324080A1.
